System: CCRF-CEM leukemia
Test: NCI-60 one-dose screen, 48 h (100 = growth as untreated, 0 = no growth, -100 = all killed)
Settings: 10 µM unless noted
The panel holds about 83,000 compounds, 20% with a hit somewhere; the sample as a whole holds those more often.
Each entry below carries its reported growth.
Dear colleague, please return just the value in %, with no unit written.

Check out these entries, answers already filled in.
Cc1cc([N+](=O)[O-])ccc1NC(=O)c1ccc2c(c1)nc(-c1ccccc1)n2C1CCCCC1 : 68.5
CC(CN)[C@@H]1CC[C@]2(CO)CC[C@]3(C)[C@H](CC[C@@H]4[C@@]5(C)CCC(NCCO)C(C)(C)[C@@H]5CC[C@]43C)[C@@H]12 (some centres undefined) : 6.44
O=C1c2c(c3c4cc(F)ccc4oc3c3[nH]c4ccccc4c23)C(=O)N1O : 5.67

Using CCRF-CEM leukemia as the test system, report measured growth of CCN1CCN(CCOc2ccc(CNc3ccc4nc(CCC5CCCCC5)[nH]c4c3)cc2)CC1 .
8.27

Find the measured growth of C#CCOc1ccc(C2=NN(CCCC)C3N=C(Cl)c4ncn(CCCC)c4N23)cc1OCC#C (centres undefined) with CCRF-CEM leukemia as test system.
78.2

Report its growth with CCRF-CEM leukemia as the test system: CC(=O)c1c(/C=C/c2ccc(C)cc2)c2ccccc2[nH]c1=O
105

Provide CCRF-CEM leukemia growth reading for C(=N\Nc1nnc2n1N=C(c1ccccc1)CS2)/c1ccc(OCc2ccccc2)cc1 .
97.2

Report value only: growth, CCRF-CEM leukemia, CCCCCCCCOC(=O)c1c(C)[nH]c(/C=C2\N=C(c3ccc[nH]3)C=C2OC)c1C
17.7

With CCRF-CEM leukemia as the test system, provide measured growth for this molecule: COc1ccc2c(O)cc3c(c2c1)[C@H](CCl)CN3C(=O)c1cc2cc(NC(=O)CCN3CCOCC3)ccc2[se]1
76
